Source: patent US7473688B2

Recorded pIC50 values for a group of compounds are listed next.
# TARGET_OR_TEST_SYSTEM: HCV NS5B (Hepatitis C virus genotype 1b, UniProt Q9WMX2)
# Construct: The protein was expressed with an 18 amino acid C-terminal truncation to enhance the solubility; made in house; host or cells: E. coli BL21 (DE3), pET21a
# Sequence (Q9WMX2 2420-2992): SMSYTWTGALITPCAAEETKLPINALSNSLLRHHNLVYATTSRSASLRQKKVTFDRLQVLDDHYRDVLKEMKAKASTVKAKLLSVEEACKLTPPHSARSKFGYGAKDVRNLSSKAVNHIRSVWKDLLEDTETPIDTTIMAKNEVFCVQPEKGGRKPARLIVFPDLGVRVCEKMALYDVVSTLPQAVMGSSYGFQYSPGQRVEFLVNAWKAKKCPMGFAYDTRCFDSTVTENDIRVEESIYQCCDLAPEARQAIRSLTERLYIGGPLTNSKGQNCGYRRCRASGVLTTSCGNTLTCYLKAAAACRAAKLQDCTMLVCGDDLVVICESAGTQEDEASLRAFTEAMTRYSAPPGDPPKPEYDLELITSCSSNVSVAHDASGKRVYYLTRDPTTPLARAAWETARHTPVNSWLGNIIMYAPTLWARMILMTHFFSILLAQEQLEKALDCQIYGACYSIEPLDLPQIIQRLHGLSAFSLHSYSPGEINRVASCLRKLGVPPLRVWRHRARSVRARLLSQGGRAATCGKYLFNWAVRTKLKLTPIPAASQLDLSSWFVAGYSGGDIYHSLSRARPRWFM
# ASSAY: HCV NS5B RdRp enzyme assay (preincubation protocol)
# Assay type: biochemical
# REPORTED_CONDITIONS: Table 1, read-out: IC50*
pIC50: −log10 of the molar value.
MEASUREMENT_NAME: pIC50

COMPOUND	MEASURED
COC(=O)c1ccc2c(C3CCCCC3)c3n(c2c1)CC(C(=O)N1CCC(N2CCCCC2=O)CC1)Cc1ccccc1-3 (stereo not drawn)	< 6.00
CN(C)S(=O)(=O)NC(=O)c1ccc2c(C3CCCCC3)c3n(c2c1)CC(C(=O)N1CCC(n2ccnn2)CC1)=Cc1ccccc1-3	6.00 to 8.00
CN(C)S(=O)(=O)NC(=O)c1ccc2c(C3CCCCC3)c3n(c2c1)CC(C(=O)N1CCN(C(=O)C2CC2)CC1)=Cc1ccccc1-3	6.00 to 8.00
C[C@@H]1CN(C(=O)c2ccccc2)CCN1C(=O)C1=Cc2ccccc2-c2c(C3CCCCC3)c3ccc(C(=O)NS(=O)(=O)N(C)C)cc3n2C1	6.00 to 8.00
O=C(O)c1ccc2c(C3CCCCC3)c3n(c2c1)CC(C(=O)N1CCC(N2CC[C@H](F)C2)CC1)=Cc1ccccc1-3	6.00 to 8.00
COC[C@H]1CCCN1C(=O)C1=Cc2ccccc2-c2c(C3CCCCC3)c3ccc(C(=O)NS(=O)(=O)N(C)C)cc3n2C1	6.00 to 8.00
C[C@@H]1CN(C(=O)c2ccccc2)CCN1C(=O)C1=Cc2ccccc2-c2c(C3CCCCC3)c3ccc(C(=O)O)cc3n2C1	6.00 to 8.00
CN(C)S(=O)(=O)NC(=O)c1ccc2c(C3CCCCC3)c3n(c2c1)CC(C(=O)N1CCN2C(=O)c4ccccc4C2C1)=Cc1ccccc1-3 (stereo not drawn)	6.00 to 8.00
COC(=O)c1ccc2c(C3CCCCC3)c3n(c2c1)CC(C(=O)N(C)NC(C)=O)=Cc1ccccc1-3	< 6.00
C[C@@H]1CN(C(=O)C2=Cc3ccccc3-c3c(C4CCCCC4)c4ccc(C(=O)NS(=O)(=O)N5CCN(C)CC5)cc4n3C2)C[C@H](C)O1	6.00 to 8.00
COC(=O)c1ccc2c(C3CCCCC3)c3n(c2c1)CC(C(=O)N1CC2(CCN(C)CC2)C1)=Cc1ccccc1-3	< 6.00
CN(C)S(=O)(=O)NC(=O)c1ccc2c(C3CCCCC3)c3n(c2c1)CC(C(=O)N1CCC(F)CC1)=Cc1ccccc1-3 [drawing 74]	6.00 to 8.00
O=C(O)c1ccc2c(C3CCCCC3)c3n(c2c1)CC(C(=O)N1CCC(N2CCCC(F)C2)CC1)=Cc1ccccc1-3 (stereo not drawn)	6.00 to 8.00
COC(=O)C1=Cc2ccccc2-c2c(C3CCCCC3)c3ccc(C(=O)NS(=O)(=O)N4CCOCC4)cc3n2C1	6.00 to 8.00
CN(C)S(=O)(=O)NC(=O)c1ccc2c(C3CCCCC3)c3n(c2c1)CC(C(=O)N1CCN(c2ncccn2)CC1)=Cc1ccccc1-3	6.00 to 8.00
